PROTOCOL TEXT: Half life in rat
Format: ADME, organism-based
SETTINGS: in vivo
READOUT KIND: half-life (h)

SMILES INPUT: CS(=O)(=O)c1cc(F)cc2c1c(Sc1ccc(C(F)(F)F)cc1)c1n2CCC[C@H]1CC(=O)O
READOUT KIND: half-life
VALUE REPORTED: 4.7

---

PROTOCOL TEXT: Protein binding in rat plasma
Assay type: ADME, cell-free
SETTINGS: read-out: PPB (converted)

SMILES INPUT: CS(=O)(=O)c1cc(F)cc2c1c(Sc1ccc(C(F)(F)F)cc1)c1n2CCC[C@H]1CC(=O)O
fraction unbound: 0.02

src = ChEMBL document CHEMBL4219136
